Test system: Noggin (protein binding on small-molecule microarray)
Test: small molecules binding Noggin protein – biochemical, 635/667 nm fluorescence, primary screen (AID 1095);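 also: score merges 667 nm feature fluorescence with signal to noise over triplicate slides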
Settings: 635 nm fluorescence, higher = more signal
# key: entry, value: composite z-score
Please state the value as a number alone, without comment.

Cc1ccccc1C(O)C1C=CC2C(=O)N(C)C(=O)C2N1Nc1ccc([N+](=O)[O-])cc1[N+](=O)[O-] (stereo unspecified) = 0.17

Q. What measured composite z-score is associated with "C=C(COC)C(=O)CC[C@H](OC(=O)c1ccccc1-c1ccccc1C(=O)O)c1ccc(CO)o1" on Noggin (protein binding on small-molecule microarray)?
A. 0.757

Q. Write down the reported composite z-score of "COc1cccc(C[C@H]2C[C@@H](CO[Si](C(C)C)(C(C)C)C(C)C)N3C(=O)[C@]4(C(C)=O)O[C@]23[C@H]2C(=O)N(C)C(=O)[C@H]24)c1" , test system: Noggin (protein binding on small-molecule microarray).
A. 1

Q. Hi! What's the reported composite z-score for "C=CC[C@]1(C(=O)N2CCOCC2)N=C(c2ccc(OCCCO)cc2)O[C@H]1c1ccccc1CN=[N+]=[N-]" on Noggin (protein binding on small-molecule microarray)?
A. 1.57

Q. # value lookup — system Noggin (protein binding on small-molecule microarray), readout composite z-score, item "COc1ccc(C(=O)Nc2ccc(CN3C(=O)[C@@]4(O[C@@H](CC(=O)N5Cc6ccccc6C[C@H]5CO)[C@H]([Si](C)(C)c5ccc(OC)cc5)[C@H]4C)c4ccccc43)cc2)cc1"
A. 1.61

Q. Short answer please: composite z-score, Noggin (protein binding on small-molecule microarray), entry "O=C(CS)NCCCCCNC(=O)[C@@H]1C[C@@H]2C(=O)N3CCC[C@H]3C(=O)N2[C@@H]1c1ccc(O)cc1"
A. -0.0286
